- SYSTEM: T1, SARS-CoV-2 S1 (aa16-685) (Wuhan) (SARS-CoV-2 Wuhan, UniProt P0DTC2 16-685)
- T1 construct: NRC; FLAG, 6xHis tags
- PROTOCOL_DESCRIPTION: SPR, antigen on chip
OBSERVABLE: koff (s⁻¹)

BINDER | REPORTED_VALUE
NRCoV2-SR03 VHH (VHH) VHH: AVQLVDSGGGLVQAGGSLRLSCAASGSIFSNNHMGWYRQAPGKQRELVAAISSGGKTNYADFAKGRFTISRDNAKNMVYLQMNSLKPEDTAVYYCNRGGWEYRSSYYIMGPHWGQGTQVTVSS | 0.00103
NRCoV2-SR13 VHH (VHH) VHH: EVQLVESGGGLVTTGGSLRLSCATSGSRFGSKHMAWYRQAPGKQRDLVAAISSGGSTHYGSSVKGRFTISRDNAKSTVYLQMNSLNPEDTAVFYCNMGGWDYRSNTYIPGSRSDYWGQGTQVTVSS | 0.00545
NRCoV2-SR04 VHH (VHH) VHH: QVQLVESGGGLVQAGGSLRLSCAASGRTFSSHTVGWYRQAPGKQRDLVAAISMGGNTNYADYADSVKGRFTISRDNAKNTLYLQMNSLKPEDTAVYYCNTAALVGNRLLPMATITWGQGTQVTVSS | 0.000493
NRCoV2-05 VHH (VHH) VHH: EVKLVQSGGGLVQPGGSLRLSCAASGFIFSNYAMNWVRQAPGKGLEWVSGINSGGGDTRYADSVKGRFTVSRDNAKNTLYLQMNSLKPEDTGVYYCSKGPVSSYYGSGYDYRGQGTQVTVSS | 0.00806
NRCoV2-SR02 VHH (VHH) VHH: EVQLVDSGGGLVQAGGSLRLSCTASEFTLNYYSIGWFRQSPGKEREGVSCIRYSGGGIDYADSVKGRFTISRDNAKNTVYLTMNSLKPEDTAVYYCAADRLYSRACPTAGGRNYWGQGTQVTVSS | 0.000555
NRCoV2-03 VHH (VHH) VHH: EVQLVSSGGGLVQAGGSLRLSCTASGITFSYYAMGWYRQAPGQPRELVASMSNMDSTIYADSVKGRFTISRDNAKTTIYLQMNNLKPEDTAVYFCNIYGPTYSTRRNEYWGQGTQVTVSS | 0.000263
NRCoV2-1d VHH (VHH) VHH: EVQLVESGGGSVQPGGSLRLSCAASGSTLDYYAIGWFRQAPGKEREWVSSVSSSDGNTLYADSVKGRFTISRDNAKNTVYLQMNSLKAEDTAVYVCAADYSMRPFAVGRWHRDYEYWGQGTQVTVSS | 0.00114
NRCoV2-SR16 VHH (VHH) VHH: QVQLVQSAGGLVQAGGSLRLSCVVSGTTFSRYHMGWHRQAPGKQRDFVAGISTSGAVTYADSAKGRFTISRDNAKNTVYLEMNSLKLEDTALYYCNTGGWDYRSSTFIMGLNWGQGTQVTVSS | 0.00115
